All figures here come from PubChem BioAssay AID248.

Item-by-item account of T/C
test system: L1210 leukemia ip in BDF1 mice, survival T/C; experiment: NCI In Vivo Anticancer Drug Screen. Data for tumor model L1210 Leukemia (intraperitoneal) in B6D2F1 (BDF1) mice; details: endpoint: mean survival time; dose: 200.0 mg/kg/injection; schedule: Q01DX009 (ip); vehicle: saline with Tween-80; higher = longer survival
Inconclusive results and toxic doses are left out.

>>> experimental_value("CCNC(=O)N(Cc1ccccc1)Cc1ccccc1")
"93 % of control"
>>> experimental_value("COc1cc(/C=N/NC(=O)c2ccncc2)cc(OC)c1OC")
"101 % of control"
>>> experimental_value("N/C(=N/N=C/c1ccc(O)cc1)N[N+](=O)[O-]")
"89 % of control"
>>> experimental_value("CCCCC(CC)C1NCCO1 (configuration not stated)")
"93 % of control"
>>> experimental_value("Cc1c(NC(=O)Nc2ccccc2C(F)(F)F)c(=O)n(-c2ccccc2)n1C")
"98 % of control"

// below: T/C requested for another compound
Would you mind telling me what T/C value was observed for O=C(N/N=C/c1cccc([N+](=O)[O-])c1)c1ccc(Cl)cc1 ?
89 % of control

* * *

Test system: L1210 leukemia ip in BDF1 mice, survival T/C
Assay: NCI In Vivo Anticancer Drug Screen. Data for tumor model L1210 Leukemia (intraperitoneal) in B6D2F1 (BDF1) mice
Conditions: endpoint: mean survival time; dose: 12.5 mg/kg/injection; schedule: Q04DX003 (ip); vehicle: saline; higher = longer survival
Method: The antitumor activity of compounds was measured in mice bearing transplantable tumors. Survival or tumor size were measured and the results are expressed as the measurement made in the treated group (T) divided by the measurement made in the vehicle treated control group (C). The tumor model used in this assay is L1210 Leukemia (intraperitoneal) in B6D2F1 (BDF1) mice
Inconclusive results and toxic doses are left out.
quantity: T/C

Here's what some known entries look like.
>>> experimental_value("NNC12CC3CC(CC(C3)C1)C2")
"105 % of control"
>>> experimental_value("O=C1C2C(C(=O)N1c1ccc(O)cc1)C1c3ccccc3C2C2CCCCN21 (stereo unspecified)")
"102 % of control"
>>> experimental_value("C=CCN(C(=O)OCC)P(=O)(OCC)OCC")
"106 % of control"
>>> experimental_value("OCC#CC(O)c1ccccc1 (stereo unspecified)")
"96 % of control"
>>> experimental_value("OCCNCCN1CCN(CCCN2c3ccccc3Sc3ccc(C(F)(F)F)cc32)CC1")
"101 % of control"

Moving on to another compound below.
I have this compound here, OC(CCl)CBr (stereo unspecified) , and I need its recorded T/C.
92 % of control

* * *

system: L1210 leukemia ip in BDF1 mice, survival T/C; experiment: NCI In Vivo Anticancer Drug Screen. Data for tumor model L1210 Leukemia (intraperitoneal) in B6D2F1 (BDF1) mice; conditions: endpoint: mean survival time; dose: 75.0 mg/kg/injection; schedule: Q01DX001 (ip); vehicle: carboxymethylcellulose (CMC); higher = longer survival
Toxic doses and inconclusive results are not listed.
quantity: T/C

>>> experimental_value("CC(C)CNCc1ccc([N+](=O)[O-])cc1")
"97 % of control"
>>> experimental_value("CCCCCCC(C)C1C(=O)NC(=S)NC1=O (stereo not drawn)")
"93 % of control"
>>> experimental_value("O/N=C/c1ccc(Cc2ccccc2)o1")
"97 % of control"
>>> experimental_value("CON=C1CCC(C(C)(C)C)CC1 (stereo not drawn)")
"106 % of control"
>>> experimental_value("CNCc1cccc2ccccc12")
"101 % of control"

I'd like to know its T/C. The compound in question is c1ccc(CNc2nccs2)cc1
96 % of control

Given the entry O=C(c1ccccc1)N(CCCl)C(=O)N(CCCl)C(=O)c1ccccc1 , report its measured T/C.
104 % of control

Field request: T/C | item: CCOC(=O)C(NNc1ccccc1)C(c1ccccc1)[P+](c1ccccc1)(c1ccccc1)c1ccccc1 (stereo not drawn)
101 % of control

* * *

Here the recorded T/C is given for each entry.
test system: L1210 leukemia ip in BDF1 mice, survival T/C; assay: NCI In Vivo Anticancer Drug Screen. Data for tumor model L1210 Leukemia (intraperitoneal) in B6D2F1 (BDF1) mice; conditions: endpoint: mean survival time; dose: 100.0 mg/kg/injection; schedule: Q04DX003 (ip); vehicle: saline; higher = longer survival
Inconclusive results and toxic doses are left out.

>>> experimental_value("O=C1c2cccc(O)c2C(=O)c2c(O)cccc21")
"93 % of control"
>>> experimental_value("Cc1cc2ncn(CC(=O)O)c2cc1C")
"101 % of control"
>>> experimental_value("CCCCOc1ccccc1NC(=O)CCl")
"100 % of control"
>>> experimental_value("CC1=NNC(C)(C)C1")
"91 % of control"
>>> experimental_value("COc1ccc(C[Si](C)C)cc1")
"93 % of control"
>>> experimental_value("Cc1ccc(S(=O)(=O)N(C)c2ccc(C#N)cc2F)cc1")
"102 % of control"
>>> experimental_value("CN(C)CCS(=O)(=O)O")
"104 % of control"

Next molecule, please.
Reported T/C, molecule COc1ccc(C(O)CN)cc1 (stereo not drawn) : ____
105 % of control

* * *

test system: L1210 leukemia ip in BDF1 mice, survival T/C; assay: NCI In Vivo Anticancer Drug Screen. Data for tumor model L1210 Leukemia (intraperitoneal) in B6D2F1 (BDF1) mice; settings: endpoint: mean survival time; dose: 100.0 mg/kg/injection; schedule: Q01DX009 (ip); vehicle: saline; higher = longer survival
Toxic doses and inconclusive results are not listed.
Reported T/C values are given for each entry in this list.

These solved cases illustrate the format of a correct answer.
>>> experimental_value("C=C(Br)C(C)(C)C")
"101 % of control"
>>> experimental_value("CC(N)C(=O)c1ccccc1 (stereo not drawn)")
"92 % of control"
>>> experimental_value("CCN(CC)C(=O)c1cccnc1")
"105 % of control"
>>> experimental_value("N=Cc1c(O)[nH]c(=O)[nH]c1=O")
"95 % of control"
>>> experimental_value("COc1ccc(C(=O)N/N=C/c2cccc(OC)c2OC)cc1")
"102 % of control"

Any idea what T/C was measured for OC1C=CC2C3C=CC(C3)C12 (stereo not drawn) ?
104 % of control

Given the entry CC1(C)CC2(C)CC(=O)C1C(C(=O)O)C2C(=O)O (stereo not drawn) , report its measured T/C.
93 % of control

GET /values?readout=T/C&item= CN(C)N=Nc1n[nH]nc1C(N)=O
113 % of control

Reported T/C, compound O=C(Nc1ccc(S(=O)(=O)F)cc1)/C(=C\c1ccc([N+](=O)[O-])cc1)c1cccc2ccccc12 : ____
91 % of control

Fill in the blank: the reported T/C of CCN(CC)C(=O)Cn1cc(F)c(N)nc1=O is ____.
98 % of control

What does the record list as T/C for CC(=O)c1c(OC(=O)c2ccccc2)cc(OC(=O)c2ccccc2)cc1OC(=O)c1ccccc1 ?
97 % of control

Name the recorded T/C for CC1(C)OCC(C2OC(=O)C(O)=C2O)O1 (stereo not drawn) .
92 % of control

What T/C value was documented for this compound, CCOC(=O)c1ccc(OC)nc1 ?
104 % of control

* * *

tested on: L1210 leukemia ip in BDF1 mice, survival T/C; experiment: NCI In Vivo Anticancer Drug Screen. Data for tumor model L1210 Leukemia (intraperitoneal) in B6D2F1 (BDF1) mice; details: endpoint: mean survival time; dose: 25.0 mg/kg/injection; schedule: Q01DX001 (ip); vehicle: Klucel (hydroxypropylcellulose) (HPC); higher = longer survival
Toxic doses and inconclusive results are not listed.
This section presents compounds with their documented T/C values.

Before answering, review these 3 worked examples.
>>> experimental_value("NNc1cc(NN)c2[nH]cnc2n1")
"100 % of control"
>>> experimental_value("CCCCCCCCCCCCCCSCCSCCSCCCCCCCCCCCCCC")
"97 % of control"
>>> experimental_value("CN1C2CCCC1CC(O)(c1ccccc1)C2 (centres undefined)")
"99 % of control"

Consider the record given below.
Quick check: T/C of CC(=C(C#N)C#N)c1ccc(Cl)cc1 ?
91 % of control

* * *

test system: L1210 leukemia ip in BDF1 mice, survival T/C; assay: NCI In Vivo Anticancer Drug Screen. Data for tumor model L1210 Leukemia (intraperitoneal) in B6D2F1 (BDF1) mice; conditions: endpoint: mean survival time; dose: 200.0 mg/kg/injection; schedule: Q04DX002 (ip); vehicle: gum acacia; higher = longer survival
Toxic doses and inconclusive results are not listed.
quantity: T/C

In the examples that follow, each entry is paired with its recorded T/C.
>>> experimental_value("CCN(CC)C(=S)SC(=S)N(CC)CC")
"103 % of control"
>>> experimental_value("Cc1ccc(OCC(=O)Nc2c(Cl)cc(Cl)cc2Cl)c(C)c1")
"89 % of control"
>>> experimental_value("COc1ccc(OC)c(-c2cc(-c3ccccc3)nc(-c3cccc([N+](=O)[O-])c3)c2)c1")
"97 % of control"

Then there is this compound:
# returns recorded T/C (system: L1210 leukemia ip in BDF1 mice, survival T/C) for O=C(Nc1ccc([N+](=O)[O-])cc1)C(c1ccccc1)c1ccccc1
100 % of control
